Sourced from ChEMBL document CHEMBL1148785

- Test system: Plasmodium falciparum
- test method notes: Inhibition of Plasmodium falciparum protein farnesyltransferase at 50 nM by scintillation proximity assay
property label: inhibition (%)

Known inhibition results, listed for orientation:
Cn1cncc1CN1CC(N(CC2CCN(C(=O)CC(F)(F)F)CC2)S(=O)(=O)c2ccccn2)Cc2cc(C#N)ccc21 (centres undefined) = 98
COC(=O)N1CCC(CN(C2Cc3cc(C#N)ccc3N(Cc3cncn3C)C2)S(=O)(=O)c2ccccc2Cl)CC1 (centres undefined) = 97

(P) COC(=O)N1CCC(CN(C2Cc3cc(C#N)ccc3N(Cc3cncn3C)C2)S(=O)(=O)c2ccc(C(=O)O)o2)CC1 (centres undefined)
(Q) Cn1cnc(CN2CC(N(CC3CCN(C(=O)OC(C)(C)C)CC3)S(=O)(=O)c3cn(C)cn3)Cc3cc(-c4ccccc4)ccc32)c1 (centres undefined)
Ask: Field: lower inhibition | Options: P / Q State your choice using its label.
Reply: Q
(Q: 33%, P: 89%)

* * *

- Tested on: Plasmodium falciparum
- test method notes: Inhibition of Plasmodium falciparum protein farnesyltransferase at 5 nM by scintillation proximity assay
property label: inhibition (%)

// worked examples, inhibition included
Cn1cnc(S(=O)(=O)N(CCc2ccsc2)C2Cc3cc(C#N)ccc3N(Cc3cncn3C)C2)c1 (configuration not stated) = 100
COC(=O)c1ccsc1S(=O)(=O)N(CC1CCN(C(=O)OC)CC1)C1Cc2cc(C#N)ccc2N(Cc2cncn2C)C1 (configuration not stated) = 61
Cn1cnc(S(=O)(=O)N(CC(=O)O)C2Cc3cc(C#N)ccc3N(Cc3cncn3C)C2)c1 (configuration not stated) = 81

(1) CC(=O)N1CCC(CN(C2Cc3cc(C#N)ccc3N(Cc3cncn3C)C2)S(=O)(=O)c2ccccn2)CC1 (configuration not stated)
(2) Cn1cnc(S(=O)(=O)N(CCn2cccc2)C2Cc3cc(C#N)ccc3N(Cc3cncn3C)C2)c1 (configuration not stated)
(3) CC(=O)OCC(=O)N(Cc1ccccc1F)C1Cc2cc(C#N)ccc2N(Cc2cncn2C)C1 (configuration not stated)
Ask: Arrange these 3 compounds in increasing order of inhibition. The labels, placed in the requested order, form the answer.
Reply: 3, 1, 2

(a) COC(=O)N1CCC(CN(C2Cc3cc(C#N)ccc3N(Cc3cncn3C)C2)S(=O)(=O)c2ccc(OC)cc2)CC1 (configuration not stated)
(b) Cn1cncc1CN1CC(N(CC2CCN(C(=O)N3CCCC3)CC2)S(=O)(=O)c2ccccn2)Cc2cc(C#N)ccc21 (configuration not stated)
(c) Cn1cncc1CN1CC(N(Cc2cccc3cccnc23)S(=O)(=O)c2ccccn2)Cc2cc(C#N)ccc21 (configuration not stated)
(d) CCOc1ccccc1CN(C1Cc2cc(C#N)ccc2N(Cc2cncn2C)C1)S(=O)(=O)c1cn(C)cn1 (configuration not stated)
Ask: Returns the items ordered by inhibition, from maximum to minimum. Write the labels, ordered according to the request.
Reply: a, c, b, d
(a: 79%, c: 46%, b: 31%, d: 5%)

* * *

- Test system: Plasmodium falciparum
- test method notes: Antimalarial activity against Plasmodium falciparum K1
- Assay type: functional
- condition notes: Plasmodium falciparum, K1; read-out: ED50 (the source's name)
property label: EC50 (nM)

(a) Cn1cncc1CN1CC(N(CC2CCN(C(=O)CNC(=O)OC(C)(C)C)CC2)S(=O)(=O)c2ccccn2)Cc2cc(C#N)ccc21 (centres undefined)
(b) Cn1cncc1CN1CC(N(CCn2cccc2)S(=O)(=O)c2ccccn2)Cc2cc(C#N)ccc21 (centres undefined)
Ask: Please indicate which entry, a or b , has the lower recorded EC50 value. Answer by stating the label of the chosen item.
Reply: b

* * *

- Tested on: Plasmodium falciparum
- test method notes: Inhibition of Plasmodium falciparum protein farnesyltransferase at 5 nM by scintillation proximity assay
property label: inhibition (%)

These recorded examples may help you get a feel for the data.
CCN(CCCCN(C1Cc2cc(C#N)ccc2N(Cc2cncn2C)C1)S(=O)(=O)c1ccccn1)C(=O)OC (stereo not drawn) = 69
Cn1cncc1CN1CC(N(Cc2ccccc2F)C(=O)C2CC2)Cc2cc(C#N)ccc21 (stereo not drawn) = 0
CC(C)COC(=O)N1CCC(CN(C2Cc3cc(C#N)ccc3N(Cc3cncn3C)C2)S(=O)(=O)c2ccccn2)CC1 (stereo not drawn) = 12

(A) Cn1cncc1CN1CC(N(Cc2ccccc2F)S(=O)(=O)c2ccccn2)Cc2cc(C#N)ccc21 (stereo not drawn)
(B) COC(=O)c1ccc(CN(C2Cc3cc(C#N)ccc3N(Cc3cncn3C)C2)S(=O)(=O)c2cn(C)cn2)cc1 (stereo not drawn)
Ask: Compare A and B by numeric inhibition and name the larger one. Record your answer as the label of the chosen record.
Reply: A

(a) COC(=O)N1CCC(CN(C2Cc3cc(C#N)ccc3N(Cc3cncn3C)C2)S(=O)(=O)c2ccccc2)CC1 (stereo not drawn)
(b) Cn1cncc1CN1CC(N(Cc2ccccc2F)S(C)(=O)=O)Cc2cc(C#N)ccc21 (stereo not drawn)
Ask: Of a versus b , which is the one with smaller reported inhibition? Reply with the label of the item you choose.
Reply: b
(b: 7%, a: 93%)

* * *

- System: Plasmodium falciparum
- test method notes: Inhibition of Plasmodium falciparum protein farnesyltransferase at 50 nM by scintillation proximity assay
property label: inhibition (%)

Worked examples follow.
C/C=C/C=C\C=C\CN(C1Cc2cc(C#N)ccc2N(Cc2cncn2C)C1)S(=O)(=O)c1ccccn1 (stereo not drawn) = 98
COC(=O)N1CCC(CN(C2Cc3cc(C#N)ccc3N(S(=O)(=O)c3cncn3C)C2)S(=O)(=O)c2ccccn2)CC1 (stereo not drawn) = 0
Cn1cncc1CN1CC(N(Cc2cccc(-n3cccc3)c2)S(=O)(=O)c2ccccn2)Cc2cc(C#N)ccc21 (stereo not drawn) = 97

(P) COC(=O)N1CCC(CN(C2Cc3cc(C#N)ccc3N(Cc3cncn3C)C2)S(C)(=O)=O)CC1 (stereo not drawn)
(Q) Cn1cnc(CN2CC(NS(=O)(=O)c3ccccn3)Cc3cc(-c4ccccc4)ccc32)c1 (stereo not drawn)
(R) Cn1cncc1CN1CC(N(Cc2ccc(S(C)(=O)=O)cc2)S(=O)(=O)c2ccccc2Cl)Cc2cc(C#N)ccc21 (stereo not drawn)
Ask: List items by inhibition in falling order. In plain terms: list the labels in the order you were asked to.
Reply: R, P, Q

(1) COC(=O)N1CCC(CN(C2Cc3cc(C#N)ccc3N(Cc3cncn3C)C2)S(=O)(=O)C2CC2)CC1 (stereo not drawn)
(2) Cn1cnc(S(=O)(=O)N(Cc2cccnc2)C2Cc3cc(C#N)ccc3N(Cc3cncn3C)C2)c1 (stereo not drawn)
(3) Cn1cnc(CN2CC(N(CC3CCN(C(=O)OC(C)(C)C)CC3)S(=O)(=O)c3ccccn3)Cc3cc(-c4ccccc4)ccc32)c1 (stereo not drawn)
Ask: Sort entries by inhibition from minimum to maximum value. Quick reminder: the answer is the labels in the order asked.
Reply: 3, 1, 2
(3: 22%, 1: 37%, 2: 99%)

(I) Cn1cncc1CN1CC(N(Cc2ccccc2F)S(C)(=O)=O)Cc2cc(C#N)ccc21 (stereo not drawn)
(II) Cn1cncc1CN1CC(N(CCn2ccnc2)S(=O)(=O)c2ccccn2)Cc2cc(C#N)ccc21 (stereo not drawn)
Ask: Form field 'greater inhibition' accepts I or II ; which applies? Bench note: the answer is the label of the chosen record.
Reply: II
(II: 95%, I: 51%)

(A) Cn1cncc1CN1CC(N(Cc2ccccc2F)S(=O)(=O)c2ccccc2)Cc2cc(C#N)ccc21 (stereo not drawn)
(B) Cn1cnc(CN2CC(N(CC(=O)NC(C)(C)C)S(=O)(=O)c3ccccn3)Cc3cc(-c4ccccc4)ccc32)c1 (stereo not drawn)
(C) Cn1cncc1CN1CC(N(CC2CCNCC2)S(=O)(=O)c2ccccn2)Cc2cc(C#N)ccc21 (stereo not drawn)
Ask: Provide the items ranked by increasing inhibition. Use the labels to give the ranking in the order requested.
Reply: B, C, A
(B: 11%, C: 18%, A: 86%)

* * *

- Tested on: Plasmodium falciparum
- test method notes: Inhibition of Plasmodium falciparum protein farnesyltransferase at 50 nM by scintillation proximity assay
property label: inhibition (%)

Cn1cnc(S(=O)(=O)N(CCOc2cccc3c2OCCO3)C2Cc3cc(C#N)ccc3N(Cc3cncn3C)C2)c1 (stereo unspecified) = 99
Cn1cnc(S(=O)(=O)N(CCc2ccsc2)C2Cc3cc(C#N)ccc3N(Cc3cncn3C)C2)c1 (stereo unspecified) = 100
COC(=O)NCCCCN(C1Cc2cc(C#N)ccc2N(Cc2cncn2C)C1)S(=O)(=O)c1ccccn1 (stereo unspecified) = 99
Cn1cncc1CN1CC(N(CC2CCN(C(=O)Nc3ccc(Br)cc3)CC2)S(=O)(=O)c2ccccn2)Cc2cc(C#N)ccc21 (stereo unspecified) = 38
Cn1cnc(S(=O)(=O)N(CCNC(=O)OC(C)(C)C)C2Cc3cc(C#N)ccc3N(Cc3cncn3C)C2)c1 (stereo unspecified) = 99

(a) Cc1nc(C)c(S(=O)(=O)N(CC(=O)NC(C)(C)C)C2Cc3cc(C#N)ccc3N(Cc3cncn3C)C2)s1 (stereo unspecified)
(b) COCCCN(C1Cc2cc(C#N)ccc2N(Cc2cncn2C)C1)S(=O)(=O)c1cn(C)cn1 (stereo unspecified)
(c) CC(=O)Nc1nc(C)c(S(=O)(=O)N(CC(=O)NC(C)(C)C)C2Cc3cc(C#N)ccc3N(Cc3cncn3C)C2)s1 (stereo unspecified)
(d) COC(=O)N1CCC(CN(C2Cc3cc(C#N)ccc3N(Cc3cncn3C)C2)S(=O)(=O)c2ccc3oc(=O)ccc3c2)CC1 (stereo unspecified)
Ask: Ordering: ascending inhibition. State the ranking by listing the labels in the requested order.
Reply: a, c, d, b
